test system: Wolbachia pipientis; test: Anti-Wolbachia Cell-Based Screen; assay type: functional; design: scale not given: in the data most compounds retested in dose-response had high values; conditions: 5 µM
In all, about 48,000 compounds went through this assay and about 13,000 (27%) showed an effect of 50% or more. The list shows a part of the results.
Measured attribute: Percent Effect (%)
Report only the number, with the unit % understood.

Can you look up the measured Percent Effect of O=C(c1ccccc1)N1CC(C(=O)N2CCOCC2)C2(CCOCC2)C1 (stereo unspecified) for me?
-41.49

I would be grateful if you could share the reported Percent Effect for CCNC(=O)N1CC[C@@H](CC(=O)O)[C@@H](CC2=NCCc3ccccc32)C1 .
7.982

What value of Percent Effect has been recorded for this entry: CN1C[C@@H](C(=O)NC(C)(C)C)[C@@]2(CCc3ccccc3C(=O)N2)C1
141.5

What measured Percent Effect goes with CN1C[C@@H](C(=O)N(C)C)[C@@]2(CCc3ccccc3C(=O)N2)C1.Cl ?
136.2

Reported Percent Effect, compound COCC(c1ccccn1)N(C)C(=O)c1cc(-c2cccn2C)n[nH]1 (stereo unspecified) : ____
-5.051

Name the reported Percent Effect value associated with the compound Cc1noc(C)c1CN1C[C@@H](NS(=O)(=O)N(C)C)[C@H](C(C)C)C1
-5.186

Endpoint output: Percent Effect of CN(C)C(=O)N1CCC2(CC1)NC(=O)c1ccccc12.Cl . Value?
-7.31

Percent Effect lookup needed for CCC1COCCN1C(=O)CNC(=O)c1ccoc1C (stereo unspecified) , thanks.
-13.26

Reported Percent Effect for CN1C[C@@H](C(=O)N2CCCOCC2)[C@@]2(CCc3ccccc3C(=O)N2)C1 : what is it?
-5.089

Which Percent Effect value is on record for O=C(c1sccc1Br)N1CCOCC1 ?
7.49

So what does the record say about Percent Effect for C[C@@H]1CN(C2(C(=O)N(C)C)Cc3ccccc3C2)C[C@H](C)O1 ?
1.411

Provenance of the data: ChEMBL document CHEMBL3988442
